Items are presented alongside their recorded IC50.
Molecular target: UniProt P35869
Sequence (P35869 11-848): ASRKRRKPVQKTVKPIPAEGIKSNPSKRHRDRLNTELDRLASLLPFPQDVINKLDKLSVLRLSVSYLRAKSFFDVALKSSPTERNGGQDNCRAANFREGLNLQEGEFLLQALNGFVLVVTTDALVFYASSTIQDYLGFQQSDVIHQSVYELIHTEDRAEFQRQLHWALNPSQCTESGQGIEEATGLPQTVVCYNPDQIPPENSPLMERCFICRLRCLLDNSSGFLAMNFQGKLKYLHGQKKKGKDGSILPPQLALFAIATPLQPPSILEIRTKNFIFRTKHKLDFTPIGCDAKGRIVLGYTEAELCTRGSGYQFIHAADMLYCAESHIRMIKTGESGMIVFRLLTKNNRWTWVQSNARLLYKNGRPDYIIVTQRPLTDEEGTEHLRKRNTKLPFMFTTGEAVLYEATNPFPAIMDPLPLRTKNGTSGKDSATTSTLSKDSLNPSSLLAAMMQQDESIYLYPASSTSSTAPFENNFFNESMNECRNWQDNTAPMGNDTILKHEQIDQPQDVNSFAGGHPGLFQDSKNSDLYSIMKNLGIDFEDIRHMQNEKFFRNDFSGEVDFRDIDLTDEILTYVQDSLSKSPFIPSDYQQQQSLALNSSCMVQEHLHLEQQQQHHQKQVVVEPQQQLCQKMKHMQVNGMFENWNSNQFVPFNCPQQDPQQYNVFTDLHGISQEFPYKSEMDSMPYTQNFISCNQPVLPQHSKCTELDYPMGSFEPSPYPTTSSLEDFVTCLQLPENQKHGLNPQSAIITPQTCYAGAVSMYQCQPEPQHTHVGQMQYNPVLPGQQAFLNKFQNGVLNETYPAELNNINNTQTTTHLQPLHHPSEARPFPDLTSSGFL
Assay: In vitro assay 1: antagonism in human cell line (transactivation assay, kynurenic acid prestimulated)
Conditions: Assay 1: AHR-luc Hum Antagonism IC50 [M], 150 μM kynurenic acid, 20 hours, firefly luciferase
observation type: IC50

[
  {
    "compound": "COCC(O)CNC(=O)c1cc(-c2ccc(C)cc2)nn(-c2cccc(F)c2)c1=O (stereo not shown) [Example 16]",
    "assay target": "UniProt P35869",
    "test value": "1.74e-07 M"
  },
  {
    "compound": "O=C(N[C@@H]1CCCC[C@@H]1O)c1cc(-c2ccc(OC(F)F)cc2)nn(-c2cccc(F)c2)c1=O (relative stereo) [Example 130]",
    "assay target": "UniProt P35869",
    "test value": "4.37e-08 M"
  },
  {
    "compound": "O=C(NCCCO)c1cc(-c2ccc(Cl)cc2)nn(-c2cccc(F)c2)c1=O [Example 189]",
    "assay target": "UniProt P35869",
    "test value": "1.86e-07 M"
  },
  {
    "compound": "C[C@@H](CO)NC(=O)c1cc(-c2ccc(Cl)cc2)nn(-c2ccccc2)c1=O [Example 80]",
    "assay target": "UniProt P35869",
    "test value": "2.14e-07 M"
  },
  {
    "compound": "O=C(N[C@H]1CCC[C@@H]1O)c1cc(-c2ccc(Cl)cc2)nn(-c2cccc(F)c2)c1=O (relative stereo) [Example 123]",
    "assay target": "UniProt P35869",
    "test value": "3.63e-08 M"
  },
  {
    "compound": "O=C(NCC(O)C1CC1)c1cc(-c2ccc(Cl)cc2)nn(-c2cccc(F)c2)c1=O (racemic) [Example 190]",
    "assay target": "UniProt P35869",
    "test value": "2.77e-07 M"
  },
  {
    "compound": "COCCC(CO)NC(=O)c1cc(-c2ccc(C(F)(F)F)cc2)nn(-c2cccc(F)c2)c1=O (single isomer, unassigned; (-)) [Example 313]",
    "assay target": "UniProt P35869",
    "test value": "1.67e-08 M"
  }
]
